// data source = ChEMBL document CHEMBL1240473

zone of inhibition at 100 µg/disc values, listed per item
# Tested on: Fusarium solani
# ASSAY COMMENT: Antimicrobial activity against Fusarium solani NCIM 1330 at 100 ug/disk after 48 hrs by agar disc-diffusion method
# Assay type: functional
# TEST SETTINGS: NCIM 1330, 48 h, read-out: DIZ
State just the number; it will be interpreted in mm.

// solved cases for zone of inhibition at 100 µg/disc follow
- COMPOUND: "CC(=O)N1CCN(c2ccc(OCC3COC(Cn4ccnc4)(c4ccc(Cl)cc4Cl)O3)cc2)CC1 (stereo not given)"
  NUMERIC READOUT: 38
- COMPOUND: "Cc1ccc(NS(=O)(=O)Cc2nnc(-c3ccc(C)cc3)o2)cc1"
  NUMERIC READOUT: 12
- COMPOUND: "Cc1ccc(NS(=O)(=O)Cc2nnc(CS(=O)(=O)c3ccc(C)cc3)o2)cc1"
  NUMERIC READOUT: 14

Task: I would be grateful if you could share the reported zone of inhibition at 100 µg/disc for O=S(=O)(Cc1nnc(-c2ccc(Cl)cc2)o1)Nc1ccc(Cl)cc1 .
Result: 14

Task: How about this compound: Cc1ccc(NS(=O)(=O)Cc2nnc(-c3ccc(C)cc3)s2)cc1
Result: 19

----------
# Tested on: Curvularia lunata
# ASSAY COMMENT: Antimicrobial activity against Curvularia lunata NCIM 716 at 100 ug/disk after 48 hrs by agar disc-diffusion method
# Type: functional
# TEST SETTINGS: NCIM 716, 48 h, read-out: DIZ
PARAMETER: zone of inhibition at 100 µg/disc
Kindly write the number and append the unit.

// solved cases for zone of inhibition at 100 µg/disc follow
- CHEMICAL STRING: "O=S(=O)(Cc1nnc(-c2ccc(Cl)cc2)s1)Nc1ccc(Cl)cc1"
  RESULT: "25 mm"
- CHEMICAL STRING: "O=S(=O)(Cc1nnc(-c2ccc(Cl)cc2)o1)Nc1ccc(Cl)cc1"
  RESULT: "13 mm"
- CHEMICAL STRING: "O=S(=O)(Cc1nnc(CS(=O)(=O)c2ccccc2)o1)Nc1ccccc1"
  RESULT: "16 mm"
- CHEMICAL STRING: "Cc1ccc(NS(=O)(=O)Cc2nnc(CS(=O)(=O)c3ccc(C)cc3)s2)cc1"
  RESULT: "25 mm"

Task: Given the entry O=S(=O)(Cc1nnc(CS(=O)(=O)c2ccc(Cl)cc2)s1)Nc1ccc(Cl)cc1 , what zone of inhibition at 100 µg/disc was observed with Curvularia lunata?
Result: 34 mm

----------
# Test system: Fusarium solani
# ASSAY COMMENT: Antimicrobial activity against Fusarium solani NCIM 1330 at 100 ug/disk after 48 hrs by agar disc-diffusion method
# Type: functional
# TEST SETTINGS: NCIM 1330, 48 h, read-out: DIZ
zone of inhibition at 100 µg/disc values, listed per item

// solved cases for zone of inhibition at 100 µg/disc follow
- CHEMICAL STRING: "Cc1ccc(NS(=O)(=O)Cc2nnc(CS(=O)(=O)c3ccc(C)cc3)s2)cc1"
  zone of inhibition at 100 µg/disc: "27 mm"
- CHEMICAL STRING: "O=S(=O)(Cc1nnc(CS(=O)(=O)c2ccc(Cl)cc2)o1)Nc1ccc(Cl)cc1"
  zone of inhibition at 100 µg/disc: "17 mm"

Task: I would be grateful if you could share the reported zone of inhibition at 100 µg/disc for O=S(=O)(Cc1nnc(CS(=O)(=O)c2ccc(Cl)cc2)s1)Nc1ccc(Cl)cc1 .
Result: 33 mm

Task: How about this compound: O=S(=O)(Cc1nnc(-c2ccc(Cl)cc2)s1)Nc1ccc(Cl)cc1
Result: 27 mm

Task: How about this compound: O=S(=O)(Cc1nnc(-c2ccccc2)s1)Nc1ccccc1
Result: 22 mm
